System: P388 leukemia ip, CD2F1 mice, survival T/C
measurementProtocol: NCI In Vivo Anticancer Drug Screen. Data for tumor model P388 Leukemia (intraperitoneal) in CD2F1 (CDF1) mice
measurementParameters: endpoint: median survival time; dose: 50.0 mg/kg/injection; schedule: Q01DX005 (ip); vehicle: Klucel (hydroxypropylcellulose) (HPC); higher = longer survival
Toxic doses and inconclusive results are not listed.
Would you kindly list T/C for each of these compounds?

Recorded results for 5 compounds are shown here.
[[record]]
compound = "CC(=O)CNc1ccccc1C(N)=O"
result = "101 % of control"

[[record]]
compound = "CCOC(Cn1cc([N+](=O)[O-])c(=O)[nH]c1=O)OCC"
result = "95 % of control"

[[record]]
compound = "Cc1cc(=O)oc2c1c(=O)[nH]n2-c1ccccc1"
result = "95 % of control"

[[record]]
compound = "CCCCc1ccc(-n2c(C)nc3[nH]cc(C)c3c2=N)cc1"
result = "96 % of control"

[[record]]
compound = "CN(O)/C=C1\\C(=O)C=Cc2ccccc21"
result = "90 % of control"


Can you give me T/C for all of these, one by one?
1. CC1(C2(C)CC2(Br)Br)CC1(Br)Br (configuration not stated)
2. Cn1c(C(=O)N/N=C/C23OC(C)(C)OC2OCC2OC(C)(C)OC23)cc2cc(OCc3ccccc3)ccc21 (configuration not stated)

[A]
101 % of control
92 % of control

Can you give me T/C for all of these, one by one?
1. CCCCC(NC(=O)OCc1ccccc1)C(=O)NC(CC(C)C)C(=O)O (configuration not stated)
2. COc1ccc(NC(CCN2CCN(CCC(=NC(C)(C)C)Nc3ccc(OC)cc3)CC2)=NC(C)(C)C)cc1
3. COc1ccc(S(=O)(=O)N/N=C/c2ccccn2)cc1OC
4. Brc1ccc(-c2ccc3nnnn3n2)s1
5. NC(=O)c1cccn(-c2ccccc2)c1=S

[A]
["100 % of control", "98 % of control", "99 % of control", "91 % of control", "89 % of control"]
